Biological target: T1, UNK ZnF1-6 (called full-length) (human, UniProt Q9C0B0 30-357)
T1 sequence: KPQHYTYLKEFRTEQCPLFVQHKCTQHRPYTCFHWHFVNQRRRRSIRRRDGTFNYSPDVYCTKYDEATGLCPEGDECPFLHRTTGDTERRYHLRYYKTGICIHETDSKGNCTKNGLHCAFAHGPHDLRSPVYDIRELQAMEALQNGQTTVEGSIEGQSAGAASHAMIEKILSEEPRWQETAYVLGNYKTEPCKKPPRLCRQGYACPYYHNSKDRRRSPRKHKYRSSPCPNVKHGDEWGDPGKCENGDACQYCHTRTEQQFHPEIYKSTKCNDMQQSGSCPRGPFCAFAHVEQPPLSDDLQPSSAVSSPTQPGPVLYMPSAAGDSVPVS
Assay: nsRBNS (natural sequence RNA bind-n-seq); RBNS binding buffer (assumed for nsRBNS): 25 mM Tris pH 7.5, 150 mM KCl, 3 mM MgCl2, 0.01% Triton X-100, 500 ug/ml BSA, 20 U/ml SUPERase-In, 4 C; UNK is unkempt and MSI1 is Musashi-1; names of the RNAs are library labels; protein concentration not given here; high values mean tight binding
Over roughly 5,800 sequences, “enrichment r” has its median near 0.68; the highest 2% begin near 11. These entries were drawn from the full list.
Reported binding signal is given for each of the following binders.
Form entry: value (enrichment R) — number only.

chrX:55006554:55006655:+|CDS|ENSG00000169188|unk|FALSE|unique (ssRNA) RNA: GGGAGUUCUACAGUCCGACGAUCAGGGCGCAAGUGGAUGGACAGCUUGCUCAGUAACUUGGGGUGCCAGUCUGCCUCUCAUGUAGGGCCCUUCAUCGAUAGCUACCGCUGCUUCCAACCAAAGCAGGAGGGGGCCUUCACCUGCAACAGAGGAUUGAGCAUCA    0.87
ENSG00000136451:be:win_1451|CDS_3pUTR|ENSG00000136451|bound_else_gene|NA|bound_elsewhere_windowed (ssRNA) RNA: GGGAGUUCUACAGUCCGACGAUCCUCCAAUGAAUCUACCCACACCUAUGACAUUAGCCGCCCCUCUCAAUAUAGCAAUGAGACCUGUAGAGAGCAUGCCUUUCUUGCCCCAAGCUUUGCCUACAUCACCGCCUUGGUAAACAGCAACAGAGGAUUGAGCAUCA    1.48

Alright, here's another binder for you.
## Task What value of binding signal has been recorded for this entry: chr10:68442948:68443070:-|CDS|ENSG00000138346|unk|total|mutant (ssRNA) RNA: GGGAGUUCUACAGUCCGACGAUCCCCAAUUGUGAUGCUGCCCAAAACCGAAGAAGAAACCCAGCAUCUGAAGCAAACACACUCCGAAUAUUUCAGCCUUUGGUGUCUAAUGUUAACCCUGGAGUCACAAUCGAAGGAUAAUAACAACAGAGGAUUGAGCAUCA
## Result 0.471
